MEASUREMENT TARGET: mutant MGL (Homo sapiens, UniProt Q99685, L169S/L176S)
Sequence (Q99685 1-303 L169S/L176S): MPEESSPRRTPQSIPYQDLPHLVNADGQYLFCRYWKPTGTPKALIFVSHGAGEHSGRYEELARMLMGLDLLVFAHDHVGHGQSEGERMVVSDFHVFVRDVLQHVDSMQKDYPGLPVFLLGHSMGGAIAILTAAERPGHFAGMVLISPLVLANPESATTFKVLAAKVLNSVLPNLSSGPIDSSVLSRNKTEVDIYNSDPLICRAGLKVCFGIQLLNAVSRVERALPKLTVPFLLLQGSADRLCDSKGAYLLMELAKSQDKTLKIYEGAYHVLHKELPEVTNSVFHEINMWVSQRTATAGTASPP
MEASUREMENT PROTOCOL: MGL ThermoFluor assay - mutant
Format: binding
COND: ThermoFluor, compound concentration measured by qNMR, read-out: MGL mutant ThermoFluor qKd (using qNMR conc.)
Kd for assorted compounds
RESULT TYPE: Kd (µM)

SUBSTANCE SMILES	RESULT TYPE	RECORDED VALUE
O=C(c1ccc2c(ccn2-c2cccnc2)c1)N1CC(N2CCN(C(=O)c3ccc[nH]3)CC2)C1	Kd	0.65
Cc1cc(-n2ccc3cc(C(=O)N4CC(N5CCN(C(=O)c6ccccc6)CC5)C4)ccc32)ccn1	Kd	0.195
O=C(c1ccc2c(c1)OCCCO2)N1CC(N2CCN(C(=O)c3nccs3)CC2)C1	Kd	1.13
Cc1ccnc(-n2ccc3cc(C(=O)N4CC(N5CCN(C(=O)C(F)(F)F)CC5)C4)ccc32)c1	Kd	0.264

====

2-AG accumulation, % of vehicle control at 10 µM for assorted compounds
MEASUREMENT TARGET: MGL (Rattus norvegicus, UniProt Q8R431)
Construct: one g rat brain was homogenized using a Polytron homogenizer; from tissue; host or cells: rat brain homogenate
Sequence (Q8R431 1-303): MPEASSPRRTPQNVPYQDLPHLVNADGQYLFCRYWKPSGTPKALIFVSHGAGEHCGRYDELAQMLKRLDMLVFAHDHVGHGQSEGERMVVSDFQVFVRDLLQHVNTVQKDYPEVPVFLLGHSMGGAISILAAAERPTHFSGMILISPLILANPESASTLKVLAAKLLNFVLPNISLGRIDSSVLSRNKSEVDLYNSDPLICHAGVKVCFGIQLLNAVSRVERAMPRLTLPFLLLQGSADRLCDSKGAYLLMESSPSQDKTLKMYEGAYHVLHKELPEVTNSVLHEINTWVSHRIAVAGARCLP
MEASUREMENT PROTOCOL: 2-AG accumulation assay in rat brain homogenate
Type: biochemical
COND: rat brain homogenate; compound 10 μM; 2-AG accumulation as percent of vehicle; read-out: Rat Brain 2AG % VehCntrl (%) @ 10 μM
RESULT TYPE: 2-AG accumulation, % of vehicle control at 10 µM (%)

COMPOUND	RECORDED VALUE
CC(C)(C)OC(=O)Nc1cccc(-c2ccc(C(=O)N3CC(N4CCN(C(=O)c5nccs5)CC4)C3)cc2)c1	993
O=C(c1ccc(-c2cccc(O)c2)cc1)N1CC(N2CCN(C(=O)c3nccs3)CC2)C1	764
COc1cc(C(=O)N2CC(N3CCN(C(=O)c4cscn4)CC3)C2)ccc1-c1ccccc1	407
O=C(c1ccc(OCc2cccc(Cl)c2)c(Cl)c1)N1CC(N2CCN(C(=O)c3nccs3)CC2)C1	762
O=C(c1ccccc1)N1CCN(C2CN(C(=O)c3ccc(-c4ccccc4OC(F)(F)F)cc3)C2)CC1	516
O=C(c1cscn1)N1CCN(C2CN(C(=O)c3ccc(-c4cccc(C(F)(F)F)c4)cc3Cl)C2)CC1	791
Cc1cc(-c2ccccc2)ccc1C(=O)N1CC(N2CCN(C(=O)c3cscn3)CC2)C1	681
CS(=O)(=O)c1cccc(-c2ccc(C(=O)N3CC(N4CCN(C(=O)c5nccs5)CC4)C3)cc2)c1	324
O=C(c1cscn1)N1CCN(C2CN(C(=O)c3ccc(-c4cccc(C(F)(F)F)c4)cc3F)C2)CC1	829
CC(C)(C)OC(=O)N1CC[C@H](Oc2ccc(C(=O)N3CC(N4CCN(C(=O)c5ccccc5)CC4)C3)cc2)C1	737
Cc1cc(-c2cccc(C(F)(F)F)c2)ccc1C(=O)N1CC(N2CCN(C(=O)c3cscn3)CC2)C1	639
O=C(c1ccccc1)N1CCN(C2CN(C(=O)c3ccc(SCc4cccc(Cl)c4Cl)cc3)C2)CC1	741
O=C(c1ccc(C2CCCCC2)cc1)N1CC(N2CCN(C(=O)c3ccco3)CC2)C1	911
Cc1nc(-c2cccc(C(F)(F)F)c2)sc1C(=O)N1CC(N2CCN(C(=O)c3cscn3)CC2)C1	818
Cc1nc(-c2ccc(Cl)cc2)sc1C(=O)N1CC(N2CCN(C(=O)c3nccs3)CC2)C1	950
O=C(c1ccc(-c2ccc(Cl)cc2)cc1)N1CC(N2CCN(C(=O)c3nccs3)CC2)C1	923
O=C(c1ccccc1)N1CCN(C2CN(C(=O)c3ccc(-c4ccc(C(F)(F)F)cc4)cc3)C2)CC1	193
O=C(c1ccc(-c2ccccc2)cc1)N1CC(N2CCN(C(=O)c3ccco3)CC2)C1	623
O=C(c1cc2cc(C(F)(F)F)ccc2s1)N1CC(N2CCN(C(=O)c3nccs3)CC2)C1	694
N#CCc1cccc(-c2ccc(C(=O)N3CC(N4CCN(C(=O)c5nccs5)CC4)C3)cc2)c1	402
O=C(c1ccccc1)N1CCN(C2CN(C(=O)c3ccc(OCc4ccc(Cl)c(Cl)c4)cc3)C2)CC1	760
O=C(c1ccc(-c2cccc3ncccc23)cc1)N1CC(N2CCN(C(=O)c3nccs3)CC2)C1	956
O=C(c1ccccc1)N1CCN(C2CN(C(=O)c3ccc4c(c3)CCN(C(=O)C3CCCCC3)C4)C2)CC1	498
CN(c1ccccc1)c1ccc(C(=O)N2CC(N3CCN(C(=O)c4ccccc4)CC3)C2)cc1	490
O=C(c1cscn1)N1CCN(C2CN(C(=O)c3ccc(-c4ccccc4)cc3Cl)C2)CC1	522
Cc1c(C(=O)N2CC(N3CCN(C(=O)c4ccccc4)CC3)C2)sc2ccc(Cl)cc12	483
O=C(c1ccc(Cc2ccccc2)cc1)N1CCN(C2CN(C(=O)c3ccccc3)C2)CC1	604
O=C(c1ccccc1)N1CCN(C2CN(C(=O)c3ccc(OCc4cccc(Cl)c4Cl)cc3)C2)CC1	520
CC1CN(C2CN(C(=O)c3ccc(Cc4ccccc4)cc3)C2)CCN1C(=O)c1nccs1 (centres unmarked)	579
COC(=O)C=Cc1ccc(-c2ccc(C(=O)N3CC(N4CCN(C(=O)c5nccs5)CC4)C3)cc2)cc1	906
O=C(c1ccc(-c2ccccc2)cc1)N1CC(N2CCN(C(=O)c3ccc(Br)o3)CC2)C1	448
O=C(c1ccc(-c2ccc(F)c(Cl)c2)cc1)N1CC(N2CCN(C(=O)c3cscn3)CC2)C1	938

====

MEASUREMENT TARGET: mutant MGL (Homo sapiens, UniProt Q99685, L169S/L176S)
MEASUREMENT PROTOCOL: MGL ThermoFluor assay - mutant
Format: binding
COND: compound concentration measured by qNMR, read-out: MGL mutant ThermoFluor qKd (using qNMR conc.)
pKd: −log10 of the molar value.
pKd for assorted compounds

SUBSTANCE SMILES	pKd
O=C(c1ccc2ccn(Cc3ccncc3)c2c1)N1CC(N2CCN(C(=O)c3nccs3)CC2)C1	6.33
Cc1cc2c(ccn2-c2ccc(F)cc2)cc1C(=O)N1CC(N2CCN(C(=O)c3nccs3)CC2)C1	7.96
Cc1nc2cc(C(=O)N3CC(N4CCN(C(=O)c5cscn5)CC4)C3)ccc2n1CCC(F)(F)F	6.08
O=C(c1nn(-c2ccc(Cl)cc2Cl)c2c1CCCC2)N1CC(N2CCN(C(=O)C(F)(F)F)CC2)C1	4.17
O=C(c1ccc2c(c1)CCN2c1ccc(F)cc1)N1CC(N2CCN(C(=O)c3nccs3)CC2)C1	9.00
Cc1nc2cc(C(=O)N3CC(N4CCN(C(=O)c5nccs5)CC4)C3)ccc2n1-c1ccc(C(F)(F)F)cc1	8.22
O=C(c1ccc(F)cc1)c1c[nH]c2cc(C(=O)N3CC(N4CCN(C(=O)c5nccs5)CC4)C3)ccc12	7.18
O=C(c1ccc2c(c1)ncn2CC(F)(F)F)N1CC(N2CCN(C(=O)c3cscn3)CC2)C1	6.04

====

MEASUREMENT TARGET: MGL (Rattus norvegicus)
Construct: one g rat brain was homogenized using a Polytron homogenizer; from tissue; host or cells: rat brain homogenate
MEASUREMENT PROTOCOL: 2-AG accumulation assay in rat brain homogenate
Format: biochemical
COND: rat brain homogenate; compound 1 μM; 2-AG accumulation as percent of vehicle; read-out: Rat Brain 2AG % VehCntrl (%) @ 1 μM
RESULT TYPE: 2-AG accumulation, % of vehicle control at 1 µM (%)

SUBSTANCE SMILES	MEASUREMENT TARGET	RECORDED VALUE
COc1cncc(Oc2ccc(C(=O)N3CC(N4CCN(C(=O)c5nccs5)CC4)C3)cc2)c1	MGL (Rattus norvegicus)	392
O=C(c1ccc2oc(-c3ccccc3)nc2c1)N1CC(N2CCN(C(=O)c3nccs3)CC2)C1	MGL (Rattus norvegicus)	417
O=C(c1ccc2c(ccn2-c2ccc(F)c(F)c2)c1)N1CC(N2CCN(C(=O)c3nccs3)CC2)C1	MGL (Rattus norvegicus)	635
O=C(c1cc(F)c2c(ccn2-c2ccc(F)cc2)c1)N1CC(N2CCN(C(=O)c3cscn3)CC2)C1	MGL (Rattus norvegicus)	508
